Tested on: NCI-H2342
ASSAY: relative viability (nuclei count vs DMSO), 5 days (fraction); higher = more cells survive
RUN PARAMETERS: first compound 0.1265 µM
MEASURED PARAMETER: relative viability
Note: the reply should be a number with no unit written.

Entry Clc1ccc(Nc2nnc(Cc3ccncc3)c3ccccc23)cc1 [Vatalanib] + O=C(CCCCCCC(=O)Nc1ccccc1)NO [Vorinostat] (partner 1 µM) has what relative viability?
0.714

Entry COc1cc(N2CCC(C(N)=O)CC2)ccc1Nc1nc(N)c(Cl)c(Nc2ccccc2S(=O)(=O)C(C)C)n1 [HG-5-88-01] + N=C(N)NC(=N)NCCc1ccccc1 [Phenformin] (partner 250 µM) has what relative viability?
0.538

Entry C[C@@H]1CN(CC(=O)Nc2ccc3c(c2)Cc2cccc(-c4cc(=O)cc(N5CCOCC5)o4)c2S3)C[C@H](C)O1 + COc1cccc2cc(-c3nc([C@H]4CC[C@H](C(=O)O)CC4)n4ncnc(N)c34)[nH]c12 [OSI-027] (partner 0.5 µM) has what relative viability?
0.506

====

System: LCLC-103H
ASSAY: relative viability (nuclei count vs DMSO), 5 days (fraction); higher = more cells survive
RUN PARAMETERS: first compound 0.08 µM
Provide the recorded relative viability for the entries that follow.
Note: the reply should be a number with no unit written.

Entry CCCCCCCCCCCC1=C(O)C(=O)C=C(O)C1=O [Embelin] + O=C(CCCCCCC(=O)Nc1ccccc1)NO [Vorinostat] (partner 1 µM) has what relative viability?
0.851

Entry CCCCCCCCCCCC1=C(O)C(=O)C=C(O)C1=O [Embelin] + CC(=O)Nc1cccc(-n2c(=O)n(C3CC3)c(=O)c3c(Nc4ccc(I)cc4F)n(C)c(=O)c(C)c32)c1 [Trametinib] (partner 0.02 µM) has what relative viability?
0.718

Entry CCCCCCCCCCCC1=C(O)C(=O)C=C(O)C1=O [Embelin] + CC(=O)c1c(C)c2cnc(Nc3ccc(N4CCNCC4)cn3)nc2n(C2CCCC2)c1=O [Palbociclib] (partner 0.5 µM) has what relative viability?
0.496

Entry CCCCCCCCCCCC1=C(O)C(=O)C=C(O)C1=O [Embelin] + Cc1cc(Nc2cc(N3CCN(C)CC3)nc(Sc3ccc(NC(=O)C4CC4)cc3)n2)n[nH]1 [Tozasertib] (partner 0.1 µM) has what relative viability?
0.549

Entry CCCCCCCCCCCC1=C(O)C(=O)C=C(O)C1=O [Embelin] + CC(C)C[C@H](NC(=O)[C@H](Cc1ccccc1)NC(=O)c1cnccn1)B(O)O [Bortezomib] (partner 0.002 µM) has what relative viability?
1

Entry CCCCCCCCCCCC1=C(O)C(=O)C=C(O)C1=O [Embelin] + CCNC(=O)c1noc(-c2cc(C(C)C)c(O)cc2O)c1-c1ccc(CN2CCOCC2)cc1 [Luminespib] (partner 0.01 µM) has what relative viability?
1

Entry CCCCCCCCCCCC1=C(O)C(=O)C=C(O)C1=O [Embelin] + N=C(N)NC(=N)NCCc1ccccc1 [Phenformin] (partner 250 µM) has what relative viability?
0.337

Entry CCCCCCCCCCCC1=C(O)C(=O)C=C(O)C1=O [Embelin] + Nc1nc2[nH]cc(CCc3ccc(C(=O)N[C@@H](CCC(=O)O)C(=O)O)cc3)c2c(=O)[nH]1 [Pemetrexed] (partner 0.2 µM) has what relative viability?
0.49
